Hi there, I'd appreciate the recorded HEK293T cells survival rate for every entry that follows.
Tested on: HEK293T cells
METHOD_DESCRIPTION: in vitro
Type: cell-based
MEASUREMENT_CONTEXT: human, 72 h, 50 µmol·L−1
Description: The 3-(4,5-dimethylthiazol-2-yl)-2,5-diphenyltetrazolium bromide (MTT) method was performed to assess the cytotoxicity of target compounds in MDCK cells and HEK293T cells. Firstly, MDCK cells or HEK293T cells were seeded into the 96-well plate. Then, the media containing test compounds replaced the growth media after 48 h. […] Finally, absorbance was read at 620 nm using an ELISA plate reader (Tecan Sunrise) after 3 h of further incubation at 37 °C. […]
Numeric answer only, unit % assumed.

Give reported HEK293T cells survival rate value for O=C(NCCO)c1ccc(Nc2ccnc3cc(C(F)(F)F)ccc23)cc1
98.62

Give reported HEK293T cells survival rate value for CCOc1ccc(N2CCN(C(=O)c3ccc(Nc4ccnc5cc(C(F)(F)F)ccc45)cc3)CC2)cc1
72.68

Give reported HEK293T cells survival rate value for O=C(c1ccc(Nc2ccnc3cc(C(F)(F)F)ccc23)cc1)N1CCN(c2cccc(C(F)(F)F)c2)CC1
70.68

Give reported HEK293T cells survival rate value for COc1ccccc1OCCNC(=O)c1ccc(Nc2ccnc3cc(OC(F)(F)F)ccc23)cc1
88.83

Give reported HEK293T cells survival rate value for CCN(CC)CCCNC(=O)c1ccc(Nc2ccnc3cc(C(F)(F)F)ccc23)cc1
85.25

Give reported HEK293T cells survival rate value for COc1ccccc1OCCNC(=O)c1ccc(Nc2ccnc3ccc(Cl)cc23)cc1
101.61

Give reported HEK293T cells survival rate value for O=C(NCc1ccccc1)c1ccc(Nc2ccnc3cc(C(F)(F)F)ccc23)cc1
103.77

Give reported HEK293T cells survival rate value for COc1ccccc1OCCNC(=O)c1ccc(Nc2ccnc3cc(C(F)(F)F)ccc23)cc1
90.17

###

System: MDCK cells
METHOD_DESCRIPTION: in vitro
Format: cell-based, canine
MEASUREMENT_CONTEXT: dog, 72 h, 100 µmol·L−1
RECORDED_ENDPOINT: MDCK cells survival rate (%)
Numeric answer only, unit % assumed.

Give reported MDCK cells survival rate value for COc1ccccc1OCCNC(=O)c1ccc(Nc2ccnc3ccc(C(F)(F)F)cc23)cc1 [Compound G26]
133.91

Give reported MDCK cells survival rate value for CCOc1ccc(N2CCN(C(=O)c3ccc(Nc4ccnc5cc(C(F)(F)F)ccc45)cc3)CC2)cc1 [Compound G18]
104.99

Give reported MDCK cells survival rate value for Cc1ccc(N2CCN(C(=O)c3ccc(Nc4ccnc5cc(C(F)(F)F)ccc45)cc3)CC2)cc1 [Compound G14]
56.76

Give reported MDCK cells survival rate value for CCN(CC)CCCNC(=O)c1ccc(Nc2ccnc3cc(C(F)(F)F)ccc23)cc1 [Compound G06]
79.75

###

Tested on: HEK293T cells
METHOD_DESCRIPTION: in vitro
Format: cell-based
MEASUREMENT_CONTEXT: human, 72 h, 3.125 µmol·L−1
RECORDED_ENDPOINT: HEK293T cells survival rate (%)
Numeric answer only, unit % assumed.

State HEK293T cells survival rate on HEK293T cells. Entry: COc1ccccc1OCCNC(=O)c1ccc(Nc2ccnc3ccc(C(F)(F)F)cc23)cc1
104.54

State HEK293T cells survival rate on HEK293T cells. Entry: CCN(CC)CCCNC(=O)c1ccc(Nc2ccnc3cc(C(F)(F)F)ccc23)cc1
107.15

State HEK293T cells survival rate on HEK293T cells. Entry: O=C(NC1CCC(O)CC1)c1ccc(Nc2ccnc3cc(C(F)(F)F)ccc23)cc1 (stereo not shown)
108.01

State HEK293T cells survival rate on HEK293T cells. Entry: COc1ccccc1OCCNC(=O)c1ccc(Nc2ccnc3cc(C(F)(F)F)ccc23)cc1
106.60

State HEK293T cells survival rate on HEK293T cells. Entry: COc1ccccc1OCCNC(=O)c1ccc(Nc2ccnc3ccc(Br)cc23)cc1
113.31

State HEK293T cells survival rate on HEK293T cells. Entry: O=C(NCCCO)c1ccc(Nc2ccnc3cc(C(F)(F)F)ccc23)cc1
106.06

State HEK293T cells survival rate on HEK293T cells. Entry: O=C(NC1CCCCC1)c1ccc(Nc2ccnc3cc(C(F)(F)F)ccc23)cc1
106.48

State HEK293T cells survival rate on HEK293T cells. Entry: COc1ccccc1OCCNC(=O)c1ccc(Nc2ccnc3ccccc23)cc1
103.14

State HEK293T cells survival rate on HEK293T cells. Entry: O=C(c1ccc(Nc2ccnc3cc(C(F)(F)F)ccc23)cc1)N1CCOCC1
100.47

State HEK293T cells survival rate on HEK293T cells. Entry: COc1ccccc1OCCNC(=O)c1ccc(Nc2ccnc3cc(OC(F)(F)F)ccc23)cc1
117.25

Ref: paper PMC9181126
